target: Human CD137 ECD (human); test: SPR, vs parent H183/L072
Sequence (chain, as listed by the source limits assumed): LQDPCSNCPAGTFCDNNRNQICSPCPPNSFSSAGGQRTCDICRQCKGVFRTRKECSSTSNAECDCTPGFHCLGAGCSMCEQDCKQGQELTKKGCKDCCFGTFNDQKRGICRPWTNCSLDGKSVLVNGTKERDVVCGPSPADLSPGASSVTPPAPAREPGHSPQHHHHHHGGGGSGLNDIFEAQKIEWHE
Reported fold change of affinity by item:
# value in fold; strip the unit string

# fold change of affinity lookup, item dBBDu183H D101H / dBBDu072L (antibody, name in Kabat numbering, V domains shown) VH: QVQLVESGGGLVQPGRSLRLSCAASGFTFSNAWMHWVRQAPGKGLEWVAQIKDKGNAYAAYYAPSVKGRFTISRDDSKNSIYLQMNSLKTEDTAVYYCHYVHYASASTVLPAFGVHAWGQGTTVTVSS VL: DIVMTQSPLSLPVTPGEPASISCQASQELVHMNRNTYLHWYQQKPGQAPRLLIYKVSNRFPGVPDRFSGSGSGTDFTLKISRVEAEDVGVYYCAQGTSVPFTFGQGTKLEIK
0

Next:
# fold change of affinity lookup, item dBBDu183H L100dR / dBBDu072L (antibody, name in Kabat numbering, V domains shown) VH: QVQLVESGGGLVQPGRSLRLSCAASGFTFSNAWMHWVRQAPGKGLEWVAQIKDKGNAYAAYYAPSVKGRFTISRDDSKNSIYLQMNSLKTEDTAVYYCHYVHYASASTVRPAFGVDAWGQGTTVTVSS VL: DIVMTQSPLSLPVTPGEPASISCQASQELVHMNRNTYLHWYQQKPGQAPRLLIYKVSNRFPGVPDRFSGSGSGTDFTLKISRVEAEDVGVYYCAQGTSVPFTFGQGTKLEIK
0

# fold change of affinity lookup, item dBBDu183H S100aF / dBBDu072L (antibody, name in Kabat numbering, V domains shown) VH: QVQLVESGGGLVQPGRSLRLSCAASGFTFSNAWMHWVRQAPGKGLEWVAQIKDKGNAYAAYYAPSVKGRFTISRDDSKNSIYLQMNSLKTEDTAVYYCHYVHYASAFTVLPAFGVDAWGQGTTVTVSS VL: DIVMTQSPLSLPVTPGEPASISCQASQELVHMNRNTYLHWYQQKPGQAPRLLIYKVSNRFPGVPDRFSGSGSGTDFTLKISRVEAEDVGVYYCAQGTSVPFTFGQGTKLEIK
0

meta.source: patent US20210388087A1
